# systemTested: HER2 (A775_G776insYVMA) expressing Ba/F3 stable cell line (Homo sapiens, UniProt P04626, DUP772-775, cells depend on it)
# Sequence (P04626 with tags, fused parts or gaps DUP772-775): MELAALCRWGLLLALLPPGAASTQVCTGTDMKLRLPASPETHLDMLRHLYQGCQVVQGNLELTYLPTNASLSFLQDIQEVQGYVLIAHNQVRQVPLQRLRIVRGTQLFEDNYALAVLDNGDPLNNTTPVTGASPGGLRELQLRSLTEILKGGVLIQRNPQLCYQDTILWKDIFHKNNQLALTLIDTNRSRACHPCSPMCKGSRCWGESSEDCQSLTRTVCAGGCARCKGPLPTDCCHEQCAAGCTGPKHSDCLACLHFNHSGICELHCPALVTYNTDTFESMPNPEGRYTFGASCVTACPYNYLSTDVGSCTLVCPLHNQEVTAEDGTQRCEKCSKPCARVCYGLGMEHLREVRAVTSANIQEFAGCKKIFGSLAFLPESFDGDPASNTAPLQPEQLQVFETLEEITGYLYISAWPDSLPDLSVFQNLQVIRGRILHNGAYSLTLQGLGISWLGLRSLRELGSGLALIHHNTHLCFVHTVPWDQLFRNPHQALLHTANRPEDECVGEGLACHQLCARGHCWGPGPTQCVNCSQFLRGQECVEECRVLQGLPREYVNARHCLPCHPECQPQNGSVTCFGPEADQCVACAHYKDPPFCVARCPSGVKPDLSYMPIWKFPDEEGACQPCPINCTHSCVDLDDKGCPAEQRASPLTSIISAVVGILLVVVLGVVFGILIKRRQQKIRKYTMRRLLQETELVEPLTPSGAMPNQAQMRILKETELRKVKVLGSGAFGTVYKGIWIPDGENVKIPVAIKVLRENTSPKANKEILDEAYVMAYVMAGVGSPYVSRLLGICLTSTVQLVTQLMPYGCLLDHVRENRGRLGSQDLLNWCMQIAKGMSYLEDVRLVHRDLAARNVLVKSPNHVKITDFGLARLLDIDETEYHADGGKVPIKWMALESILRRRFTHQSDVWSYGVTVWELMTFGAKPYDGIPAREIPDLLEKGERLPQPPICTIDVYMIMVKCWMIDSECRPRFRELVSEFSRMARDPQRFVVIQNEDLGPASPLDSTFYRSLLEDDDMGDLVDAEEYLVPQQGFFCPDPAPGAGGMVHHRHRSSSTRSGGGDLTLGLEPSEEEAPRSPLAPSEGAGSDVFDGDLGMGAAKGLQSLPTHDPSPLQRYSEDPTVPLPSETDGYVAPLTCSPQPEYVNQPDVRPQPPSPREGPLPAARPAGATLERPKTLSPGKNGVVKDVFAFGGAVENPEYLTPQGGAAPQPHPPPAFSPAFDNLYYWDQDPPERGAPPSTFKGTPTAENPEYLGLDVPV
# protocol: Cellular proliferation (Alamar Blue) assay, HER2 (A775_G776insYVMA) Ba/F3
# Type: cell-based
# conditionInfo: HER2 (A775_G776insYVMA) Ba/F3 cells; 72 hr; Alamar Blue; read-out: YVMA IC50
measureName: GI50 (nM)

# compound, readingUnit, GI50
rows = [
    ("CN(C)C/C=C/C(=O)Nc1ccc(F)c(Nc2nc(Nc3cnn(C)c3)ncc2-c2cc(F)cc(F)c2)c1 [Compound 161]", "nM", 62),
]

1. C=CC(=O)Nc1ccc(F)c(Nc2nc(Nc3cnn(C)c3)ncc2-c2cnc(F)c(C(F)(F)F)c2)c1 [Compound 47]
2. C=CC(=O)Nc1ccc(F)c(Nc2nc(Nc3cn(C)nc3Cl)ncc2-c2cc(F)cc(C(F)F)c2)c1 [Compound 108]
3. COc1cc(F)cc(-c2cnc(Nc3cnn(C)c3)nc2Nc2cc(NC(=O)/C=C/CN(C)C)ccc2F)c1 [Compound 144]
Please list these in order of increasing GI50. Thank you! Please list the labels in the order you were asked to rank them.
1, 2, 3
(1: 25 nM, 2: 243 nM, 3: 970 nM)

A. C=CC(=O)Nc1ccc(F)c(Nc2nc(Nc3cnn(C)c3)ncc2-c2ccc(Br)c(N(C)C)c2)c1 [Compound 119]
B. C=CC(=O)Nc1ccc(F)c(Nc2nc(Nc3cnn(C)c3)ncc2-c2cc(F)cc(C(F)(F)F)c2)c1 [Compound 27]
C. C=CC(=O)Nc1ccc(F)c(Nc2nc(Nc3cnn(C)c3)ncc2-c2cnc(Cl)c(C(F)(F)F)c2)c1 [Compound 44]
Please list these in order of increasing GI50. Thank you! Please list the labels in the order you were asked to rank them.
C, B, A

====

# systemTested: EGFR (A767_dupASV) expressing Ba/F3 stable cell line (Homo sapiens, UniProt P00533, DUP767-769, cells depend on it)
# Sequence (P00533 with tags, fused parts or gaps DUP767-769): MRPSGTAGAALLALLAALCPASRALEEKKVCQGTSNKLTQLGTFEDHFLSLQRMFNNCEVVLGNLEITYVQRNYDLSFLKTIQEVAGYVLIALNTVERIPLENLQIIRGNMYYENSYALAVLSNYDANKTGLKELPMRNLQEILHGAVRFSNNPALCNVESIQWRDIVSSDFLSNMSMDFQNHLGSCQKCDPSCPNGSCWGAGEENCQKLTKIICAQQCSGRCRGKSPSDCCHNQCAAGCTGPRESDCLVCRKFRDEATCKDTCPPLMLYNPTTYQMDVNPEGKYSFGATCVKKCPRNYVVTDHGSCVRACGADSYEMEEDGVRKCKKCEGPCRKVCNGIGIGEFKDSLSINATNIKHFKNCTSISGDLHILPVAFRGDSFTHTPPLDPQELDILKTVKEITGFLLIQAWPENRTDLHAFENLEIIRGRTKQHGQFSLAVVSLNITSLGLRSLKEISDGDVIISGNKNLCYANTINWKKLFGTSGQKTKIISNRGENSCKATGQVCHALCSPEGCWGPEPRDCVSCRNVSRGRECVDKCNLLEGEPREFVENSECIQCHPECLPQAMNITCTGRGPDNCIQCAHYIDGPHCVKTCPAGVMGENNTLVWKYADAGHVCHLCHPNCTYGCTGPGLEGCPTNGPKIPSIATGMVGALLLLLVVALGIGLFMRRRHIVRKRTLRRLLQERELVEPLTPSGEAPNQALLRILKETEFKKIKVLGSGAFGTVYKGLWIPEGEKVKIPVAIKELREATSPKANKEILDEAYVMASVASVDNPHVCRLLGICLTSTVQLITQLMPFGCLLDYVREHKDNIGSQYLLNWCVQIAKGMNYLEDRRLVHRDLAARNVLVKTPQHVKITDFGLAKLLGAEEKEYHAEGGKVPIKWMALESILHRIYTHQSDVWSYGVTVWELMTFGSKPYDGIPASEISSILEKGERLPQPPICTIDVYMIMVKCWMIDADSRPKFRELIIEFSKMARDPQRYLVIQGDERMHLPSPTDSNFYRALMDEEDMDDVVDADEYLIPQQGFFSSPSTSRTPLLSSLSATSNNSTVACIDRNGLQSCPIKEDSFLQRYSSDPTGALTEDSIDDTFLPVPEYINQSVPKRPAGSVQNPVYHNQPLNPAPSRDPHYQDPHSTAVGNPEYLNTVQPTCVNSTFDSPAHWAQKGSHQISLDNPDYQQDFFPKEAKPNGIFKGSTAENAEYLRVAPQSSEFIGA
# protocol: Cellular proliferation (Alamar Blue) assay, EGFR (A767_dupASV) Ba/F3
# Assay type: cell-based
# conditionInfo: 72 hr, read-out: A767 IC50
measureName: GI50 (nM)

Here is how some compounds turned out for GI50.
# compound, readingUnit, GI50
measured = [
    ("C=CC(=O)Nc1cccc(Nc2nc(Nc3cnn(C)c3)ncc2-c2cc(F)c(C(F)(F)F)c(F)c2)c1 [Compound 153]", "nM", 34),
    ("C=CC(=O)Nc1ccc(F)c(Nc2nc(Nc3cnn(C)c3)ncc2-c2ccc(C(F)(F)F)c(F)c2)c1 [Compound 35]", "nM", 99),
    ("C=CC(=O)Nc1ccc(F)c(Nc2nc(Nc3cnn(C)c3)ncc2-c2cc(C(F)(F)F)ccc2F)c1 [Compound 24]", "nM", 321),
    ("[2H]C([2H])([2H])Oc1cc(F)cc(-c2cnc(Nc3cnn(C)c3)nc2Nc2cc(NC(=O)C=C)ccc2F)c1 [Compound 165]", "nM", 110),
]

P. C=CC(=O)Nc1ccc(F)c(Nc2nc(Nc3cn(C)nc3Cl)ncc2-c2ccc(Br)c(F)c2)c1 [Compound 92]
Q. [2H]C([2H])([2H])n1cc(Nc2ncc(-c3cc(F)cc(F)c3)c(Nc3cc(NC(=O)/C=C/CN(C)C)ccc3F)n2)cn1 [Compound 167]
R. C=CC(=O)Nc1ccc(F)c(Nc2nc(Nc3cnn(C)c3)ncc2-c2cc(F)cc(C(F)F)c2)c1 [Compound 15]
Please list these compounds in decreasing order of GI50. Please list the labels in the order you were asked to rank them.
Q, P, R
(Q: 234 nM, P: 102 nM, R: 45 nM)
